System: Caenorhabditis elegans N2
method: food intake (mean delta OD600 / animal over 72 h) with 50 uM loxapine co-treatment (OD600 units per animal); higher = more food eaten (less suppression of loxapine-induced hyperphagia)
condition.details: first compound 33 µM, loxapine concentration 50 µM
Where a name gives a salt, the structure may show the parent alone.
Recorded food intake by entry
parameter.measured: food intake

CCC1(c2cccc(O)c2)CCCCN(C)C1 (stereo not drawn) [meptazinol (hydrochloride)] + CN1CCN(C2=Nc3ccccc3Oc3ccc(Cl)cc32)CC1 : 0.0231
CCCCCCCCCCC(=O)O[C@H]1CC[C@H]2[C@@H]3CCC4=CC(=O)CC[C@]4(C)[C@H]3CC[C@]12C [testosterone (undecanoate)] + CN1CCN(C2=Nc3ccccc3Oc3ccc(Cl)cc32)CC1 : 0.0238
COc1cc2c(cc1OC)C1CC(=O)C(CC(C)C)CN1CC2 (stereo not drawn) [tetrabenazine] + CN1CCN(C2=Nc3ccccc3Oc3ccc(Cl)cc32)CC1 : 0.0274

---

Tested on: Caenorhabditis elegans N2
method: food intake (mean delta OD600 / animal over 72 h) with 50 uM loxapine co-treatment (OD600 units per animal); higher = more food eaten (less suppression of loxapine-induced hyperphagia)
condition.details: first compound 33 µM, loxapine concentration 50 µM
Counter-ions that a name gives are not always drawn.
Returns one of 1 or 0; 1 when food intake is >= 0.02.

Oc1cccc2cccnc12 [8-hydroxyquinoline] + CN1CCN(C2=Nc3ccccc3Oc3ccc(Cl)cc32)CC1 : 1
C[C@]12CCC(=O)C(O)=C1CC[C@@H]1[C@@H]2CC[C@]2(C)C(=O)CC[C@@H]12 [formestane] + CN1CCN(C2=Nc3ccccc3Oc3ccc(Cl)cc32)CC1 : 1
C[N+](C)(C)CCCCCCCCCC[N+](C)(C)C [decamethonium (bromide)] + CN1CCN(C2=Nc3ccccc3Oc3ccc(Cl)cc32)CC1 : 1
CN1[C@@H]2CC(O)C[C@H]1[C@@H]1O[C@@H]12 (stereo partly specified) [scopine (hydrochloride)] + CN1CCN(C2=Nc3ccccc3Oc3ccc(Cl)cc32)CC1 : 0
O=[N+]([O-])C(Br)(CO)CO [bronopol] + CN1CCN(C2=Nc3ccccc3Oc3ccc(Cl)cc32)CC1 : 1
COc1ccc(CN2CCNCC2)c(OC)c1OC [trimetazidine (dihydrochloride)] + CN1CCN(C2=Nc3ccccc3Oc3ccc(Cl)cc32)CC1 : 1
